The values you see were collected from ChEMBL document CHEMBL2346657.

Overview of reported zone of inhibition at 1000 µg/mL across a group of compounds:
Test system: Aspergillus flavus
method summary: Antimicrobial activity against Aspergillus flavus MTCC 1973 at 1000 ug/ml after 72 hrs by cup plate method
Type: functional
test conditions: MTCC 1973, 72 h, read-out: IZ
recorded endpoint: zone of inhibition at 1000 µg/mL

- compound: "Cc1ccc2[nH]c(-c3ccccc3)c(C3C=C(c4ccc(Cl)cc4)Oc4[nH]c(=O)nc(N)c43)c2c1 (centres undefined)"
  reported result: "4 mm"
- compound: "Cc1ccc2[nH]c(-c3ccccc3)c(C3C=C(c4ccccc4)Oc4nc[nH]c(=O)c43)c2c1 (centres undefined)"
  reported result: "8 mm"
- compound: "Cc1ccc(C2=CC(c3c(-c4ccccc4)[nH]c4ccccc34)c3c(N)n[nH]c3O2)cc1 (centres undefined)"
  reported result: "8 mm"
- compound: "OC(Cn1cncn1)(Cn1cncn1)c1ccc(F)cc1F"
  reported result: "14 mm"
- compound: "Cc1ccc(C2=CC(c3c(-c4ccccc4)[nH]c4ccc(Cl)cc34)c3c(N)nc(=S)[nH]c3O2)cc1 (centres undefined)"
  reported result: "3 mm"
- compound: "N#Cc1c(N)c2c(N)c3c(nc2oc1=O)OC(c1ccc(Cl)cc1)=CC3c1c(-c2ccccc2)[nH]c2ccccc12 (centres undefined)"
  reported result: "8 mm"
- compound: "Cc1ccc(C2=CC(c3c(-c4ccccc4)[nH]c4ccccc34)c3c(nc4oc(=O)c(C#N)c(N)c4c3N)O2)cc1 (centres undefined)"
  reported result: "0 mm"
- compound: "O=c1[nH]cnc2c1C(c1c(-c3ccccc3)[nH]c3ccc(Cl)cc13)C=C(c1ccc(Cl)cc1)O2 (centres undefined)"
  reported result: "4 mm"
- compound: "Cc1ccc(C2=CC(c3c(-c4ccccc4)[nH]c4ccc(Cl)cc34)c3c(nc[nH]c3=O)O2)cc1 (centres undefined)"
  reported result: "6 mm"
